Source listed as PubChem BioAssay.

TEST_DESCRIPTION: small molecules captured by biotinylated probe aFGF10 – biochemical, small-molecule microarray, fluorescence 635/667, stem cell growth factor project, primary screen (AID 1071);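 note: score merges 667 nm spot intensity and signal to noise from triplicate slides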
CONDITION_INFO: higher = more signal
Entries annotated with measured composite z-score
MEASUREMENT_LABEL: composite z-score

molecule=COCCOC(=O)N1C(=O)[C@@]2(c3cc(C#CCCO)ccc31)[C@H](C(=O)Nc1nc3ccccc3s1)[C@H]1C(=O)O[C@H](c3ccccc3)[C@H](c3ccccc3)N1[C@@H]2c1ccc(O)cc1 measurement_label="composite z-score" value_reported=0.83
molecule="CCCCCN1CC=CC23O[C@@H]4/C=C\\CCC(C)OC(=O)C4[C@H]2C(=O)N(C(CO)C(C)C)[C@@H]3C1=O (some centres undefined)" measurement_label="composite z-score" value_reported=-0.246
molecule=COc1ccc(CCNC(=O)[C@@]2(c3ccc([N+](=O)[O-])cc3)CC(=O)N(C3CCCCC3)[C@@H]2c2ccc(CO)cc2)cc1 measurement_label="composite z-score" value_reported=0.325
molecule="O=C1NC(=O)C2C1C=CC(C(O)c1ccco1)N2Nc1ccc(Cl)cc1Cl (centres undefined)" measurement_label="composite z-score" value_reported=-0.0728
